# TEST_TARGET: GIPR (CHO-K1-hGIPR cells) (Homo sapiens, UniProt P48546)
# Construct: host or cells: CHO-K1
# Sequence (P48546 22-466): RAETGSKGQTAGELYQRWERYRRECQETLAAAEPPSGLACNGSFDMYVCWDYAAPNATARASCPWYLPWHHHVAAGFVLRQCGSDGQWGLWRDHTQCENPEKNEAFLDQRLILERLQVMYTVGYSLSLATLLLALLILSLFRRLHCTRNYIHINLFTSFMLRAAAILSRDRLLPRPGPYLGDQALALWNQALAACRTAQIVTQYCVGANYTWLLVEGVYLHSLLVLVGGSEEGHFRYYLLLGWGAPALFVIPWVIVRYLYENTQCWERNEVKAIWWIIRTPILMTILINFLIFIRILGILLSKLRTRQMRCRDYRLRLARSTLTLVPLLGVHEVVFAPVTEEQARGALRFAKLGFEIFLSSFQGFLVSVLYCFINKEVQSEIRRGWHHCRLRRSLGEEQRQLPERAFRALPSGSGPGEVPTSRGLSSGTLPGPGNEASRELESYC
# ASSAY_SUMMARY: FACS binding assay
# EXPERIMENTAL_CONTEXT: pIC50 Category, competition with 20 nM GIP-057, 4° C., 1 hour
pIC50: −log10 of the molar value. *1 amine or outer side, *2 acyl side, *3 side chain or, on linkers, in order; H or OH if unused. Where a SMILES comes first, the peptide text is derived from it. Bridges are numbered along the chain shown (N, C = ends). [ ]: non-standard residue; d: D form. The star is where a group is joined. X13 = O=C(CN1CCN2CCN3CCN(CC1)CC(=O)[O][Lu]([O]C(=O)C2)[O]C(=O)C3)NCCCOCCOCCOCCCN*; Trp(5-Cl) = N[C@@H](Cc1c[nH]c2ccc(Cl)cc12)C(=O)O; X7 = c1cc(CSCCN[*:2])cc(C[*:1])c1; Suc = O=C(CCC(=O)[*:2])[*:1]; Thp = NC1(C(=O)O)CCOCC1

>  <COMPOUND>
CC[C@H](C)[C@@H]1NC(=O)[C@H](CC(C)C)NC(=O)C2(CCOCC2)NC(=O)[C@@H](NC(=O)[C@@H](CC(C)C)NC(=O)[C@H](CCC(=O)O)NC(=O)[C@@H]2CCCN2C(=O)[C@H](Cc2c[nH]c3ccc(Cl)cc23)NC(=O)[C@H](Cc2c[nH]c3ccccc23)NC(=O)[C@H](CC(=O)O)NC(=O)CCC(=O)NCCCOCCOCCOCCCNC(=O)CN2CCN3CCN4CCN(CC2)CC(=O)[O][Lu]([O]C(=O)C3)[O]C(=O)C4)CSCc2cccc(c2)CSCCNC1=O [GIP-158] ({X13-Suc}-DW[Trp(5-Cl)]PE[dL]C[Thp]LI; linker 7-C via X7)

>  <pIC50>
> 8.00

$$$$
